# Tested system: FLT4 (VEGFR3) (Homo sapiens)
# Sequence (P35916 25-1363): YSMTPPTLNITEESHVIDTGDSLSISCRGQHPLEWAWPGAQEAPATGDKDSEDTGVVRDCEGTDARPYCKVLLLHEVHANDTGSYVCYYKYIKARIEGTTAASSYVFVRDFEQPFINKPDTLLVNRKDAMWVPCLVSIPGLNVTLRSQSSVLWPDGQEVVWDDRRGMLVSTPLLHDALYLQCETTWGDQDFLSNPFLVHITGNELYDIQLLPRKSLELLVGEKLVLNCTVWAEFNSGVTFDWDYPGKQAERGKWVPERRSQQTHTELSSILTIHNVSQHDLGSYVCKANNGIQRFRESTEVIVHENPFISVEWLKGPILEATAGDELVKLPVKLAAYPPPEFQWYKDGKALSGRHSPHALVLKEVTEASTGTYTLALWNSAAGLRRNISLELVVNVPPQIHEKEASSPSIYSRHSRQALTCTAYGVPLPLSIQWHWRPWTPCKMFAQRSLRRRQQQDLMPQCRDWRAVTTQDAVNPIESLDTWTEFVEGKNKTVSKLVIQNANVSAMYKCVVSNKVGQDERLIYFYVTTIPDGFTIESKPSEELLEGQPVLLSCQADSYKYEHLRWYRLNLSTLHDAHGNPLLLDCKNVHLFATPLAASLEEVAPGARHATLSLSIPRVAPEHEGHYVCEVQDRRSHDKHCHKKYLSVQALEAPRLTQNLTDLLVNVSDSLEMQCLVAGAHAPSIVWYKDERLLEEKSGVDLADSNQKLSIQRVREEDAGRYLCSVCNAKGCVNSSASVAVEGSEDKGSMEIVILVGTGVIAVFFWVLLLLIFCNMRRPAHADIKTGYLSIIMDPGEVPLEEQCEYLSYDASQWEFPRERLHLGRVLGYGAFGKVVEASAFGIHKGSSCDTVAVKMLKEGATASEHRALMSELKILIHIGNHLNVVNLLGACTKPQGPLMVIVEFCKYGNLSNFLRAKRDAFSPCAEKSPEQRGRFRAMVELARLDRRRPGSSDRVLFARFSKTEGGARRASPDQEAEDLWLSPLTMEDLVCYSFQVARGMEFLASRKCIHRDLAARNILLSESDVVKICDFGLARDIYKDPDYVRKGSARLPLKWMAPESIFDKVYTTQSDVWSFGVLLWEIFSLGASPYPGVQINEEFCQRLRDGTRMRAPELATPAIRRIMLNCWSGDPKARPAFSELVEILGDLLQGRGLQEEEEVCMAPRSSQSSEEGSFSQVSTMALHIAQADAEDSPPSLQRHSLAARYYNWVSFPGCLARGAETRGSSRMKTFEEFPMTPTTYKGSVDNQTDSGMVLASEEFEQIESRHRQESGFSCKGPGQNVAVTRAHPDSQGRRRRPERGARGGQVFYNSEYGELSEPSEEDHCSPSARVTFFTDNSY
# Protocol: Z'-LYTE SelectScreen biochemical kinase assay FLT4 (VEGFR3)
# Experimental setup: 10 μmolar compound concentration; ATP at Km app; read-out: FLT4 (VEGFR3) inhibition
Readout type: inhibition at 10 µM

Consider the reported inhibition at 10 µM for these molecules:
[
  {
    "Molecule": "Cc1cc(F)ccc1-c1cccn2nc(NC3CCc4cnn(C)c4C3)nc12 (centres unmarked)",
    "Result": "< 40%"
  },
  {
    "Molecule": "CC1(C)C(=O)Nc2ccc(Nc3nc4c(-c5cccc(F)c5)cccn4n3)cc21 [Cpd. 263 in WO09155551, reference compound]",
    "Result": "> 80%"
  },
  {
    "Molecule": "CCn1ncc2c1CCC(Nc1nc3c(-c4ccccc4)cccn3n1)C2 (centres unmarked)",
    "Result": "40 to 80%"
  },
  {
    "Molecule": "CCn1ncc2c1CCC(Nc1nc3c(-c4cccc(Cl)c4)cccn3n1)C2 (centres unmarked)",
    "Result": "< 40%"
  },
  {
    "Molecule": "CCn1ncc2c1CCC(Nc1nc3c(-c4cnccc4OC)cccn3n1)C2 (centres unmarked)",
    "Result": "40 to 80%"
  }
]

What does the data say about its inhibition at 10 µM? Entry: CCCCCn1ncc2c1CCC(Nc1nc3c(-c4ccc(F)cc4C)cccn3n1)C2 (centres unmarked)
< 40%

Follow-up item: CCCCn1ncc2c1CCC(Nc1nc3c(-c4ccc(F)cc4C)cccn3n1)C2 (centres unmarked)
< 40%

Can you check CCn1ncc2c1CCC(Nc1nc3c(-c4cncc(OC)c4)cccn3n1)C2 (centres unmarked) next?
< 40%

Okay, and Cc1cc(F)ccc1-c1cccn2nc(NC3CCc4c(cnn4CC(C)C)C3)nc12 (centres unmarked) ?
< 40%

Same lookup for CCCn1ncc2c1CCC(Nc1nc3c(-c4ccc(F)cc4C)cccn3n1)C2 (centres unmarked) , please.
< 40%

Another molecule to check: CCn1ncc2c1C(C)CC(Nc1nc3c(-c4cc(F)c(F)c(F)c4)cccn3n1)C2 (centres unmarked)
< 40%

Consider next the molecule CCn1ncc2c1CCC(Nc1nc3c(-c4ccc(F)cc4C)cccn3n1)C2 (centres unmarked) in the same way.
< 40%

Record: CC1(C)NC(=O)c2ccc(Nc3nc4c(-c5cccc(F)c5)cccn4n3)cc21 [Cpd. 302 in WO09155551, reference compound]
> 80%

###

# Tested system: UniProt P35916
# Protocol: Z'-LYTE SelectScreen biochemical kinase assay FLT4 (VEGFR3)
# Experimental setup: read-out: % Inhibition mean FLT4 (VEGFR3)
Readout type: inhibition at 10 µM (%)

[
  {
    "Compound": "CCn1ncc2c1CCC(Nc1nc3c(-c4ccc(F)cc4C)cccn3n1)C2 (stereo not drawn)",
    "Readout type": "inhibition at 10 µM",
    "Numeric value": 31
  },
  {
    "Compound": "Cc1cc(F)ccc1-c1cccn2nc(NC3CCc4c(cnn4CC(C)C)C3)nc12 (stereo not drawn)",
    "Readout type": "inhibition at 10 µM",
    "Numeric value": 33
  }
]

a: CCn1ncc2c1CCC(Nc1nc3c(-c4ccc(F)cc4)cccn3n1)C2 (stereo not drawn)
b: CCn1ncc2c1CCC(Nc1nc3c(-c4ccc(OC)nc4)cccn3n1)C2 (stereo not drawn)
Please tell me which of the two, a or b , has the higher reported inhibition at 10 µM value. Please respond with the label that marks your chosen entry.
b
(b: 62%, a: 42%)

P: CCCCCn1ncc2c1CCC(Nc1nc3c(-c4ccc(F)cc4C)cccn3n1)C2 (stereo not drawn)
Q: CCn1ncc2c1CCC(Nc1nc3c(-c4ccccc4C)cccn3n1)C2 (stereo not drawn)
R: Cc1cc(F)ccc1-c1cccn2nc(NC3CCc4c(cnn4C)C3)nc12 (stereo not drawn)
Sort entries by inhibition at 10 µM from minimum to maximum value. // rank by listing labels in the order requested
P, R, Q

1: CCn1ncc2c1CCC(Nc1nc3c(-c4cccnc4)cccn3n1)C2 (stereo not drawn)
2: CCn1ncc2c1CCC(Nc1nc3c(-c4cncc(Cl)c4)cccn3n1)C2 (stereo not drawn)
// which entry reports the smaller inhibition at 10 µM, 1 or 2 ? Mark your answer with the label of the selected entry.
1

###

Reported No. of kinases with <40% inhibition values for a set of compounds
# Tested on: kinases
# Protocol: Z'-LYTE SelectScreen kinase panel: number of kinases with <40% inhibition out of 15 tested
# Assay type: biochemical
# Experimental setup: 10 μmolar (10000 nM) compound; [ATP] Km app; 15 kinases tested

Some entries whose results are on file:
[
  {
    "Compound": "Cc1cc(F)ccc1-c1cccn2nc(Nc3ccc4c(cnn4C)c3)nc12",
    "No. of kinases with <40% inhibition": "7/15"
  },
  {
    "Compound": "CCn1ncc2c1CCC(Nc1nc3c(-c4ccccc4C)cccn3n1)C2 (centres unmarked)",
    "No. of kinases with <40% inhibition": "12/15"
  },
  {
    "Compound": "CCc1nn(C)c2c1CCC(Nc1nc3c(-c4ccc(F)cc4C)cccn3n1)C2 (centres unmarked)",
    "No. of kinases with <40% inhibition": "15/15"
  },
  {
    "Compound": "Cc1cc(F)ccc1-c1cccn2nc(NC3CCc4c(cnn4C)C3)nc12 (centres unmarked)",
    "No. of kinases with <40% inhibition": "13/15"
  },
  {
    "Compound": "CCn1ncc2c1CC[C@@H](Nc1nc3c(-c4ccc(F)cc4C)cccn3n1)C2",
    "No. of kinases with <40% inhibition": "14/15"
  }
]

What does the record list as No. of kinases with <40% inhibition for CCCCn1ncc2c1CCC(Nc1nc3c(-c4ccc(F)cc4C)cccn3n1)C2 (centres unmarked) ?
14/15

What do you get for Cc1cc(F)ccc1-c1cccn2nc(NC3CCc4c(cnn4C(C)C)C3)nc12 (centres unmarked) ?
13/15

###

# Tested system: LYN B (Homo sapiens)
# Sequence (P07948 1-491 isoform P07948-2): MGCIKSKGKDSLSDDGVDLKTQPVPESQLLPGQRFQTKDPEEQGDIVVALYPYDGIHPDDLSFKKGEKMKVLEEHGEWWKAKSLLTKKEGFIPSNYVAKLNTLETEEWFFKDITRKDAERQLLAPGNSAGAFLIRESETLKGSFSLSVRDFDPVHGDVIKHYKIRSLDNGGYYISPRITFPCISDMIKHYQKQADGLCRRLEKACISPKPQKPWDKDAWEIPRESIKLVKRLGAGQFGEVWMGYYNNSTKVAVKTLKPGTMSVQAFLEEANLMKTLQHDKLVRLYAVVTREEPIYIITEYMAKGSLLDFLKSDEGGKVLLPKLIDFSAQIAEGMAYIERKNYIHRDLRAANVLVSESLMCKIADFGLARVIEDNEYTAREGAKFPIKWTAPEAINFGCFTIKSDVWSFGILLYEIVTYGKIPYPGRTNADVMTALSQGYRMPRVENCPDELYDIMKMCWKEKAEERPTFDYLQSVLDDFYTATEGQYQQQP
# Protocol: Z'-LYTE SelectScreen biochemical kinase assay LYN B
# Experimental setup: read-out: % Inhibition mean LYN B
Readout type: inhibition at 10 µM (%)

Example results:
[
  {
    "Molecule": "CCn1ncc2c1CCC(Nc1nc3c(-c4cncc(OC)c4)cccn3n1)C2 (stereo not drawn)",
    "Readout type": "inhibition at 10 µM",
    "Numeric value": 22
  },
  {
    "Molecule": "Cc1cc(F)ccc1-c1cccn2nc(NC3CCc4c(cnn4CC(C)C)C3)nc12 (stereo not drawn)",
    "Readout type": "inhibition at 10 µM",
    "Numeric value": 15
  },
  {
    "Molecule": "CCCCn1ncc2c1CCC(Nc1nc3c(-c4ccc(F)cc4C)cccn3n1)C2 (stereo not drawn)",
    "Readout type": "inhibition at 10 µM",
    "Numeric value": 23
  },
  {
    "Molecule": "CCn1ncc2c1CCC(Nc1nc3c(-c4cncc(Cl)c4)cccn3n1)C2 (stereo not drawn)",
    "Readout type": "inhibition at 10 µM",
    "Numeric value": 31
  },
  {
    "Molecule": "CCn1nnc2c1CCC(Nc1nc3c(-c4ccc(F)cc4C)cccn3n1)C2 (stereo not drawn)",
    "Readout type": "inhibition at 10 µM",
    "Numeric value": 7
  },
  {
    "Molecule": "Cc1cc(F)ccc1-c1cccn2nc(NC3CCc4c(cnn4C(C)C)C3)nc12 (stereo not drawn)",
    "Readout type": "inhibition at 10 µM",
    "Numeric value": 21
  },
  {
    "Molecule": "CCn1ncc2c1CCC(Nc1nc3c(-c4ccccc4)cccn3n1)C2 (stereo not drawn)",
    "Readout type": "inhibition at 10 µM",
    "Numeric value": 20
  },
  {
    "Molecule": "CCn1nc(Cl)c2c1CCC(Nc1nc3c(-c4ccc(F)cc4C)cccn3n1)C2 (stereo not drawn)",
    "Readout type": "inhibition at 10 µM",
    "Numeric value": 22
  }
]

a: CCn1ncc2c1CC[C@H](Nc1nc3c(-c4ccc(F)c(Cl)c4)cccn3n1)C2
b: CCn1ncc2c1CCC(Nc1nc3c(-c4cccnc4OC)cccn3n1)C2 (stereo not drawn)
c: CCn1ncc2c1CCC(Nc1nc3c(-c4ccc(F)cc4)cccn3n1)C2 (stereo not drawn)
Task field, ranking: reported inhibition at 10 µM, descending order. Returns: the labels arranged in the requested order.
c, b, a

###

# Tested system: AURKA (Aurora A) (Homo sapiens)
# Sequence (O14965 whole entry): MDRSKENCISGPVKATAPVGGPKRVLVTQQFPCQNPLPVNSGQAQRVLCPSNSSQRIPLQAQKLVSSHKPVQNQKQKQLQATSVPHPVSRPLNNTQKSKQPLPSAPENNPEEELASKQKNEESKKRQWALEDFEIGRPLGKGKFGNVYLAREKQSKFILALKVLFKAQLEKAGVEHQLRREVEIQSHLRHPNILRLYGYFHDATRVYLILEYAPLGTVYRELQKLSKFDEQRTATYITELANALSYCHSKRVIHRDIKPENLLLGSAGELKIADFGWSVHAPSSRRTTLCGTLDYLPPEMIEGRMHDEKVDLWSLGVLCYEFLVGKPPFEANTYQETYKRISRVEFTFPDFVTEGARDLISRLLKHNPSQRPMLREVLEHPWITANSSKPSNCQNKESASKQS
# Protocol: Z'-LYTE SelectScreen biochemical kinase assay AURKA (Aurora A)
# Experimental setup: read-out: % Inhibition mean AURKA (Aurora A)
Readout type: inhibition at 10 µM (%)

A selection of reference data follows.
[
  {
    "Molecule": "CCc1nn(C)c2c1CCC(Nc1nc3c(-c4ccc(F)cc4C)cccn3n1)C2 (stereo not drawn)",
    "Tested system": "AURKA (Aurora A) (Homo sapiens)",
    "inhibition at 10 µM / %": 18
  },
  {
    "Molecule": "CCn1ncc2c1CC[C@@H](Nc1nc3c(-c4ccc(F)c(Cl)c4)cccn3n1)C2",
    "Tested system": "AURKA (Aurora A) (Homo sapiens)",
    "inhibition at 10 µM / %": -8
  },
  {
    "Molecule": "Cc1cc(F)ccc1-c1cccn2nc(NC3CCc4cnn(C)c4C3)nc12 (stereo not drawn)",
    "Tested system": "AURKA (Aurora A) (Homo sapiens)",
    "inhibition at 10 µM / %": 13
  },
  {
    "Molecule": "CCCCCn1ncc2c1CCC(Nc1nc3c(-c4ccc(F)cc4C)cccn3n1)C2 (stereo not drawn)",
    "Tested system": "AURKA (Aurora A) (Homo sapiens)",
    "inhibition at 10 µM / %": 10
  }
]

P: CCn1ncc2c1CCC(Nc1nc3c(-c4cccc(Cl)c4)cccn3n1)C2 (stereo not drawn)
Q: Cc1cc(F)ccc1-c1cccn2nc(Nc3ccc4c(cnn4C)c3)nc12
R: CCn1ncc2c1CCC(Nc1nc3c(-c4ccccc4)cccn3n1)C2 (stereo not drawn)
S: CCn1ncc2c1CCC(Nc1nc3c(-c4ccc(F)cc4C)cccn3n1)C2 (stereo not drawn)
T: CCn1ncc2c1CCC(Nc1nc3c(-c4cccnc4)cccn3n1)C2 (stereo not drawn)
Thanks in advance: please rank these 5 entries by inhibition at 10 µM, highest to lowest. Lab note: final answer is the ordered label list.
Q, T, R, S, P

From: patent US11339161B2
